Test system: HeLa cervical adenocarcinoma
Test: Cell Proliferation Inhibition Assay (14C-thymidine incorporation), HeLa
Type: cell-based
Conditions: Homo sapiens
measurement type: pIC50
Remember the convention: pIC50 equals -log10 of concentration in molar.

Past entries and their recorded results:
[
  {
    "molecule": "CC(C)C(CO)Nc1nc(Nc2ccc(S(=O)(=O)NCCO)cc2)nc2[nH]ncc12 (centres unmarked)",
    "measured result": 4.00
  },
  {
    "molecule": "O=S(=O)(NCCO)c1ccc(Nc2nc(Nc3ccc(S(=O)(=O)NCCO)cc3)c3cn[nH]c3n2)cc1",
    "measured result": 5.00
  },
  {
    "molecule": "O=S(=O)(NCCO)c1ccc(Nc2nc(Nc3ccc4[nH]ncc4c3)c3cn[nH]c3n2)cc1",
    "measured result": 4.00
  },
  {
    "molecule": "c1cc2cc(Nc3nc(Nc4ccc5[nH]ccc5c4)c4cn[nH]c4n3)ccc2[nH]1",
    "measured result": 5.40
  },
  {
    "molecule": "NS(=O)(=O)c1ccc(Nc2nc(Nc3ccc4[nH]ncc4c3)nc3[nH]ncc23)cc1",
    "measured result": 4.44
  },
  {
    "molecule": "O=S(=O)(NCCO)c1ccc(Nc2nc(Nc3ccc4[nH]ncc4c3)c3cnoc3n2)cc1",
    "measured result": 4.00
  }
]

Lookup: Look up pIC50 for this molecule: CC(=O)n1ncc2c(Nc3ccc(S(=O)(=O)NCCO)cc3)nc(Nc3ccc(S(=O)(=O)NCCO)cc3)nc21
Found: 4.00
